Tested on: HIV-1NL4–3
Experiment: HIV-1/NL4–3 replication inhibition assay in MT-4 lymphocytes
Type: cell-based
Details: Human immunodeficiency virus 1, Lymphocyte, read-out: PIC50 (experimental)
Quick reference: IC50 of the listed items.

{"Compound": "C=C(C)[C@@H]1CC[C@]2(C(=O)O)CC[C@]3(C)[C@H](CC[C@@H]4[C@@]5(C)CC[C@H](OC(=O)CC(C)(C)C(=O)O)C(C)(C)[C@@H]5CC[C@]43C)[C@@H]12 [Compound 3, reference compound]", "IC50 (nM)": 64.6}
{"Compound": "C=C(C)[C@@H]1CC[C@]2(C(=O)N3CCN(C(=O)/C=C/c4ccc5c(c4)OCO5)CC3)CC[C@]3(C)[C@H](CC[C@@H]4[C@@]5(C)CC[C@H](OC(=O)CC(C)(C)C(=O)O)C(C)(C)[C@@H]5CC[C@]43C)[C@@H]12", "IC50 (nM)": 19.1}
{"Compound": "C=C(C)[C@@H]1CC[C@]2(C(=O)N3CCN(C(=O)/C=C/c4ccc(OC)c(OC)c4)CC3)CC[C@]3(C)[C@H](CC[C@@H]4[C@@]5(C)CC[C@H](OC(=O)CC(C)(C)C(=O)O)C(C)(C)[C@@H]5CC[C@]43C)[C@@H]12", "IC50 (nM)": 28.8}
